Biological target: T1, GST-KLHDC2 (kelch repeat domain, amino acid 1-362) (human, UniProt Q9Y2U9 1-362)
T1 sequence (looked up): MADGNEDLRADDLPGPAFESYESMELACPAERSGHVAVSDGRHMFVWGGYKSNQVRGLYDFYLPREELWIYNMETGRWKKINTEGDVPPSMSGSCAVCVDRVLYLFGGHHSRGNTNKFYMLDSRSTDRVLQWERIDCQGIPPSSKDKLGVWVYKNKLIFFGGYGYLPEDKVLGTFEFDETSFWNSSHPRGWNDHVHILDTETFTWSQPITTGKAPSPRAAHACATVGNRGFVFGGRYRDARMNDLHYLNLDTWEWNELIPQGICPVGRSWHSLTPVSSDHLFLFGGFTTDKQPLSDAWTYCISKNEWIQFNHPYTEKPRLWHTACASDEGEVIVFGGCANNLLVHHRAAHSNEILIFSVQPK
Assay: AlphaScreen or HTRF
measured_property: IC50

May I ask what IC50 has been recorded for LRGPSPPPMAGG (peptide, UniProt Q9Y6D0 80-91, looked up) [12 aa SelK degron peptide (label-free)] ?
~3 nM
